Sourced from paper PMC6566077

Reported A549 (MIC99) values follow for various molecules
# Tested on: A549 cells
# ASSAY_PROTOCOL: Cytotoxicity assay (resazurin, 24 h)
# MEASUREMENT_SETUP: 24 h exposure, viability by resazurin
Give the value in mM but do not write mM after it.

{"columns": ["MOLECULE", "A549 (MIC99) (mM)"],
 "data": [
  ["O=C(NCCNC(=O)c1cccc(B(O)O)c1)c1cccc(B(O)O)c1 [Compound 4]", 25],
  ["O=C(NCCCOCCOCCOCCCNC(=O)c1cccc(B(O)O)c1)c1cccc(B(O)O)c1 [Compound 6]", 25],
  ["OB(O)c1ccccc1 [Compound 1, reference compound]", 50]
]}

Input line: What does the record list as A549 (MIC99) for O=C(NCCOCCOCCNC(=O)c1cccc(B(O)O)c1)c1cccc(B(O)O)c1 [Compound 5] ?
Output line: 25
